Experimental System: Thymidine phosphorylase (Escherichia coli K-12) (UniProt P07650)
Sequence (P07650 whole entry, looked up): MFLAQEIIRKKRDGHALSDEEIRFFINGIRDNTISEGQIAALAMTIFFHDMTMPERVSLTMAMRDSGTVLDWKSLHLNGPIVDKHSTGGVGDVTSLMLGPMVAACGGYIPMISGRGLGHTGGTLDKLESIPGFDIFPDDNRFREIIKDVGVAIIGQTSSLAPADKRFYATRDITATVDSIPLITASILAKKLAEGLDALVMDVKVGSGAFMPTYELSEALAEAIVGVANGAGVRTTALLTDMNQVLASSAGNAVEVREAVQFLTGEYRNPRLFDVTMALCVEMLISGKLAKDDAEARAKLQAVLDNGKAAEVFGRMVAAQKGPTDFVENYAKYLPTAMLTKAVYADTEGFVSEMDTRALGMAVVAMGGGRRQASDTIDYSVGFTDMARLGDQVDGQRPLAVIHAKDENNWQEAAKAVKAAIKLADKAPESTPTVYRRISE
Test Details: Inhibition of Escherichia coli thymidine phosphorylase at 1 mM incubated for 20 mins at room temperature followed by 5 mins incubation at 90 degC by HPLC analysis
If the reported inhibition equals or exceeds 80%, assign Y. If not, assign N.

Answered cases to consult:
Cc1cn(CCCCCCCCCC(F)(F)P(=O)(O)O)c(=O)[nH]c1=O	Y
Cc1cn(Cc2cn(CCCCC(F)(F)P(=O)(O)O)nn2)c(=O)[nH]c1=O	Y
Cc1cn(CCCCCCCCCCCC(F)(F)P(=O)(O)O)c(=O)[nH]c1=O	Y
Cc1cn(CCCSCCCCC(F)(F)P(=O)(O)O)c(=O)[nH]c1=O	Y
Cc1cn(CCCCCCCCC(F)(F)P(=O)(O)O)c(=O)[nH]c1=O	Y

Enquiry: Dear colleague, could you confirm whether `Nc1[nH]c(=O)[nH]c(=O)c1Br` has inhibition at or above 80%?
Return: Y

Enquiry: Is it the case that `O=P(O)(O)C(F)(F)CCCn1cc(Cn2cnc3c(O)ncnc32)nn1` has inhibition reaching or exceeding 80%?
Return: N

Enquiry: Exam item: decide whether the reported inhibition for `Nc1nc(O)c2ncn(Cc3cn(CCCCC(F)(F)P(=O)(O)O)nn3)c2n1` is at least 80%.
Return: N

Enquiry: Determine whether measured inhibition meets or exceeds 80% for `O=c1ccn(CCCCC(F)(F)P(=O)(O)O)c(=O)[nH]1`
Return: N

* * *

# maps each entry to its Ki
Test Details: Inhibition of thymidine phosphorylase
# number only, unit µM dropped from output

O=P(O)(O)CCCCCCCCn1ccc2c(O)nc(O)nc21	54
Cc1cn(C[C@@H](CF)OCP(=O)(O)O)c(=O)[nH]c1=O	2
Cc1cn(C[C@@H](CO)OCP(=O)(O)O)c(=O)[nH]c1=O	2
Cc1cn(C[C@@H](C)OCP(=O)(O)O)c(=O)[nH]c1=O	2
Nc1c(Br)c(=O)[nH]c(=O)n1CCCCCCCCP(=O)(O)O	142

We next turn to a different compound, shown below.
Enquiry: Sample N=C1CCCN1Cc1[nH]c(=O)[nH]c(=O)c1Cl [TIPIRACIL] — what was its Ki?
Return: 0.035

* * *

Experimental System: UniProtKB P07650
Test Details: Inhibition of Escherichia coli thymidine phosphorylase at 1 mM incubated for 20 mins at room temperature followed by 5 mins incubation at 90 degC by HPLC analysis
# inhibition >= 50% gives MET, anything below gives NOT MET

Some entries whose results are on file:
O=P(O)(O)C(F)(F)CCCCn1cnc2c(O)ncnc21	NOT MET
Cc1cn(CC(I)CC(F)(F)P(=O)(O)O)c(=O)[nH]c1=O (stereo unspecified)	MET
O=P(O)(O)C(F)(F)CCCCn1cc(Cn2cnc3c(O)ncnc32)nn1	MET
O=c1[nH]c(=O)n(CCCCC(F)(F)P(=O)(O)O)cc1Br	MET

Enquiry: Has `Cc1cn(CCCCSCCCCC(F)(F)P(=O)(O)O)c(=O)[nH]c1=O` a recorded inhibition greater than or equal to 50%?
Return: MET

* * *

Experimental System: UniProt:P07650
Test Details: Inhibition of Escherichia coli thymidine phosphorylase at 1 mM incubated for 20 mins at room temperature followed by 5 mins incubation at 90 degC by HPLC analysis
Observation Type: inhibition (%)
Please state the figure in %; there is no need to write the unit.

Completed entries (count: 6):
Cc1cn(Cc2cn(CCCC(F)(F)P(=O)(O)O)nn2)c(=O)[nH]c1=O	79
Cc1cn(Cc2cn(CC(F)(F)P(=O)(O)O)nn2)c(=O)[nH]c1=O	29
Cc1cn(CCCCC(F)(F)P(=O)(O)O)c(=O)[nH]c1=O	68
Cc1cn(CCCCP(=O)(O)O)c(=O)[nH]c1=O	23
Cc1cn(CCCCCCSCCCCC(F)(F)P(=O)(O)O)c(=O)[nH]c1=O	86
O=c1ccn(Cc2cn(CCCCC(F)(F)P(=O)(O)O)nn2)c(=O)[nH]1	79

Enquiry: Return reported inhibition; argument: `Nc1nc(O)c2ncn(CCCCC(F)(F)P(=O)(O)O)c2n1`
Return: 74

Enquiry: What does the record list as inhibition for `Nc1nc(O)c2ncn(CCCC(F)(F)P(=O)(O)O)c2n1` ?
Return: 25

Enquiry: # input compound: `Cc1cn(CCSCCCCC(F)(F)P(=O)(O)O)c(=O)[nH]c1=O` ; wanted: its inhibition
Return: 36
